Reported pIC50 is given for each of the following molecules.
biological target: Caspase-1 (Homo sapiens, UniProt P29466); assay: Inhibition of human recombinant caspase 1
Sequence (P29466 120-297 limits assumed): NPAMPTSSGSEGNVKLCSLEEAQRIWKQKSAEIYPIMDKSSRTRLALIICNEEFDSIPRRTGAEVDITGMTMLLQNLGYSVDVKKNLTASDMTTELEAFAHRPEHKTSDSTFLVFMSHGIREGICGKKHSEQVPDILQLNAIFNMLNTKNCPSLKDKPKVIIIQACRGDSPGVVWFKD
Sequence (P29466 317-404 limits assumed): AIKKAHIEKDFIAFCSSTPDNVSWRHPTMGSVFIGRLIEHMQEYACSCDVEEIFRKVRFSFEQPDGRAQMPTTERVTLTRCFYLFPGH
Kindly note that pIC50 refers to -log10 of the concentration in mol/L and answer with the value alone.

# example entries with known answers
CCC(C(=O)N[C@@H](CC(=O)O)C(=O)CCCc1ccccc1)n1cc(C(C)(C)C)nc(NCCc2cccs2)c1=O (stereo partly specified) : 5.64
CCC(C(=O)N[C@@H](CC(=O)O)C(=O)CCCc1ccccc1)n1cc(C(C)(C)C)nc(NCc2cc(OC)cc(OC)c2)c1=O (stereo partly specified) : 6.49
CCC(C(=O)N[C@@H](CC(=O)O)C(=O)CCCc1ccccc1)n1cc(C(C)(C)C)nc(Nc2nnn[nH]2)c1=O (stereo partly specified) : 8.05

Q: Report measured pIC50; entry is CCCCCCN(C)CC(=O)[C@H](CC(=O)O)NC(=O)C(CC)n1cc(C(C)(C)C)nc(Nc2nnn[nH]2)c1=O (stereo partly specified)
Result: 8.47

Q: Report measured pIC50; entry is CCC(C(=O)N[C@@H](CC(=O)O)C(=O)CCCc1ccccc1)n1cc(C(C)(C)C)nc(Nc2ccc3c(c2)OCCO3)c1=O (stereo partly specified)
Result: 6.48

Q: Report measured pIC50; entry is CCC(C(=O)N[C@@H](CC(=O)O)C(=O)CCCc1ccccc1)n1cc(C(C)(C)C)nc(NC(CC(C)C)C(=O)O)c1=O (stereo partly specified)
Result: 5.26

====

target: UniProt P42574; assay: Inhibition of human recombinant caspase 3
Measured Property: pIC50
Kindly note that pIC50 refers to -log10 of the concentration in mol/L and answer with the value alone.

# example entries with known answers
CCC(C(=O)N[C@@H](CC(=O)O)C(=O)CCCc1ccccc1)n1cc(C(C)(C)C)nc(Nc2nnn[nH]2)c1=O (stereo partly specified) : 8.30
CCC(C(=O)N[C@@H](CC(=O)O)C(=O)CCCc1ccccc1)n1cc(C(C)(C)C)nc(NCc2cc(OC)cc(OC)c2)c1=O (stereo partly specified) : 6.80
CCC(C(=O)N[C@@H](CC(=O)O)C(=O)CCCc1ccccc1)n1cc(C(C)(C)C)nc(NCCc2cccs2)c1=O (stereo partly specified) : 7.30
CCC(C(=O)N[C@@H](CC(=O)O)C(=O)CCCc1ccccc1)n1cc(C(C)(C)C)nc(Nc2ccc3c(c2)OCCO3)c1=O (stereo partly specified) : 7.55
CCC(C(=O)N[C@@H](CC(=O)O)C(=O)CCCc1ccccc1)n1cc(C(C)(C)C)nc(NC(CC(C)C)C(=O)O)c1=O (stereo partly specified) : 7.00

Alright, here's another molecule for you.
Q: Report measured pIC50; entry is CCCCCCN(C)CC(=O)[C@H](CC(=O)O)NC(=O)C(CC)n1cc(C(C)(C)C)nc(Nc2nnn[nH]2)c1=O (stereo partly specified)
Result: 8.18

====

Target: Caspase-3 (Homo sapiens, UniProt P42574)
Sequence (P42574 whole entry): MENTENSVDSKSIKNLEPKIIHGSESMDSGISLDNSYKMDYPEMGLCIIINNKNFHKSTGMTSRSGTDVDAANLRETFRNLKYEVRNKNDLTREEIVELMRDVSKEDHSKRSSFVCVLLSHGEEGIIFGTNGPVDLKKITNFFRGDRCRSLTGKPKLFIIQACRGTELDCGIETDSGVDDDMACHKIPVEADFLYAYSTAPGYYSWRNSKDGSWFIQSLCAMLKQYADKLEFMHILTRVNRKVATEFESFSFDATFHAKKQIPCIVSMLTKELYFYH
Experiment: Inhibition of human recombinant caspase 3 in NT2 by whole cell assay
Measured Property: IC50 (µM)
// note: answer is a bare numeric in µM

CCC(C(=O)N[C@@H](CC(=O)O)C(=O)CCCc1ccccc1)n1cc(C(C)(C)C)nc(Nc2nnn[nH]2)c1=O (some centres not stated) : 19.4

Alright, here's another molecule for you.
Q: Report measured IC50; entry is CCCCCCN(C)CC(=O)[C@H](CC(=O)O)NC(=O)C(CC)n1cc(C(C)(C)C)nc(Nc2nnn[nH]2)c1=O (some centres not stated)
Result: 6.07
